System: HEK-293T
Assay: Multiplex assay against HEK293T
Type: toxicity, cell-based
Details: human, 24 h, 1 µM, compound concentration 1 uM, replicate 2
endpoint: Population Mitotic Cells (%)
Return type: number; implicit unit %.

| molecule | display.unit | number |
| --- | --- | --- |
| CC(C)(C)c1cnc(CSc2cnc(NC(=O)C3CCNCC3)s2)o1 | % | 77 |
| CC(C)Oc1ccc(C(=O)N[C@H](CNC(=O)CN(C)C)Cc2ccc(-c3cn4cccc([C@H](C)O)c4n3)cc2)cc1Cl [GSK-923295A] | % | 87 |
| N#Cc1cnc(Nc2cc(NC[C@H]3CNCCO3)c(C(F)(F)F)cn2)cn1 | % | 94 |
| CCOc1cc(N2CCC(O)CC2)ccc1Nc1ncc2c(n1)N(C1CCCC1)CCC(=O)N2C | % | 95 |
| CN(C)C/C=C/C(=O)Nc1cc2c(Nc3ccc(F)c(Cl)c3)ncnc2cc1O[C@H]1CCOC1.O=C(O)/C=C\C(=O)O.O=C(O)/C=C\C(=O)O [AFATINIB DIMALEATE] | % | 87 |

Here is the next item to consider.
Q: Look up Population Mitotic Cells (%): COc1cc2c(NC3CCN(C(C)C)CC3)nc(N3CCC(F)(F)CC3)nc2cc1OCCCN1CCCC1
Ans: 60

====

Population Pyknosed Nuclei (%) values for the compounds below.
System: HEK-293T
Experiment: Multiplex assay against HEK293T
Assay type: toxicity, cell-based
Details: human, 24 h, 1 µM, compound concentration 1 uM, replicate 1
Write your answer as a measured quantity: the number, then the unit.

Observe how each entry below is paired with its result.
| compound | endpoint | result |
| --- | --- | --- |
| CC(C)Oc1ccc(C(=O)N[C@H](CNC(=O)CN(C)C)Cc2ccc(-c3cn4cccc([C@H](C)O)c4n3)cc2)cc1Cl [GSK-923295A] | Population Pyknosed Nuclei (%) | 24% |
| Cl.Cl.Nc1ncnc2c1c(-c1cccc(OCc3ccccc3)c1)cn2[C@H]1C[C@@H](CN2CCC2)C1 | Population Pyknosed Nuclei (%) | 67% |

Q: Look up Population Pyknosed Nuclei (%): Cl.Cl.NC1(c2ccc(-c3nc4ccn5c(=O)[nH]nc5c4cc3-c3ccccc3)cc2)CCC1
Ans: 10%

Q: Look up Population Pyknosed Nuclei (%): Cc1cc2c(cc1N1C(=O)c3cccc4c(CCCO)ccc(c34)C1=O)n(C)c(=O)n2C
Ans: 41%

Q: Look up Population Pyknosed Nuclei (%): O=C(O)c1ccc2cc(-c3ccc(O)c(C45CC6CC(CC(C6)C4)C5)c3)ccc2c1 [O-DEMETHYLATED ADAPALENE]
Ans: 19%

====

Tested on: HEK-293T
Test: Multiplex assay against HEK293T
Assay type: toxicity, cell-based
Details: human, 12 h, 10 µM, compound concentration 10 uM, replicate 1
Population Pyknosed Nuclei (%) values for the compounds below.
Return type: number; implicit unit %.

| compound | display.unit | Population Pyknosed Nuclei (%) |
| --- | --- | --- |
| Nc1nc2c(c(N3CCNCC3)n1)CCC1=C2[C@@H]2CCCC[C@@H]2O1 | % | 59 |
| CCn1c(-c2nonc2N)nc2cnc(Oc3cccc(NC(=O)c4ccc(OCCN5CCOCC5)cc4)c3)cc21 [GSK-269962A] | % | 72 |
| CC(=O)c1cc(-c2cc(C(=O)NC3CC3)ccc2C)c2ncccn12 | % | 58 |

Here is the next item to consider.
Q: Look up Population Pyknosed Nuclei (%): Cc1nc(Cc2cccc(C(F)(F)F)c2)sc1-c1ccc(C(N)=O)nc1 [TP-024n]
Ans: 59

====

Tested on: U2OS
Assay: Multiplex assay against U2OS
Assay type: toxicity, cell-based
Settings: human, 48 h, 1 µM, compound concentration 1 uM, replicate 1
endpoint: Population Apoptotic (%)
Return type: number; implicit unit %.

Observe how each entry below is paired with its result.
| compound | endpoint | number |
| --- | --- | --- |
| Cl.Cl.Nc1ncnc2c1c(-c1cccc(OCc3ccccc3)c1)cn2[C@H]1C[C@@H](CN2CCC2)C1 | Population Apoptotic (%) | 65 |
| CCn1c(-c2nonc2N)nc2cnc(Oc3cccc(NC(=O)c4ccc(OCCN5CCOCC5)cc4)c3)cc21 [GSK-269962A] | Population Apoptotic (%) | 48 |
| CCC(=O)O[C@]1(C(=O)SCF)[C@H](C)C[C@H]2[C@@H]3C[C@H](F)C4=CC(=O)C=C[C@]4(C)[C@@]3(F)[C@@H](O)C[C@@]21C [FLUTICASONE PROPIONATE] | Population Apoptotic (%) | 53 |
| CCc1cc2c(cc1CC)CC(NC[C@H](O)c1ccc(O)c3[nH]c(=O)ccc13)C2 [INDACATEROL] | Population Apoptotic (%) | 45 |
| CCCn1c(=O)c2[nH]c(C34CC5CC(CC3C5)C4)nc2n(CCC)c1=O [ROLOFYLLINE] | Population Apoptotic (%) | 72 |
| CC(C)N1CCC(C)(C)c2cc(C#Cc3ccc(C(=O)O)cc3)ccc21 | Population Apoptotic (%) | 25 |
| Nc1nc2c(c(N3CCNCC3)n1)CCC1=C2[C@@H]2CCCC[C@@H]2O1 | Population Apoptotic (%) | 31 |

Here is the next item to consider.
Q: Look up Population Apoptotic (%): CC(=O)c1cc(-c2cc(C(=O)NC3CC3)ccc2C)c2ncccn12
Ans: 47

====

Test system: Fibroblast
Test: Multiplex assay against human fibroblast
Format: toxicity, cell-based
Settings: 24 h, 10 µM, compound concentration 10 uM, replicate 2
Class (by Population Membrane Permeable-Phenotype (%)) -- low (below 20%), medium (20% to below 40%), high (40% or more)

Study these solved cases before continuing.
| molecule | category.label |
| --- | --- |
| CC(C)N1CCC(C)(C)c2cc(C#Cc3ccc(C(=O)O)cc3)ccc21 | low |
| Nc1nc2c(c(N3CCNCC3)n1)CCC1=C2[C@@H]2CCCC[C@@H]2O1 | medium |
| CCOc1cc2ncc(C#N)c(Nc3ccc(OCc4cccc(F)c4)c(Cl)c3)c2cc1NC(=O)/C=C/CN(C)C | low |
| CN(C)CCOc1ccc(-c2nc(-c3ccncc3)c(-c3ccc4c(c3)CC/C4=N\O)[nH]2)cc1 | medium |
| CN(C)C/C=C/C(=O)Nc1cc2c(Nc3ccc(F)c(Cl)c3)ncnc2cc1O[C@H]1CCOC1.O=C(O)/C=C\C(=O)O.O=C(O)/C=C\C(=O)O [AFATINIB DIMALEATE] | medium |

Q: Kindly identify the class of CC(=O)c1cc(-c2cc(C(=O)NC3CC3)ccc2C)c2ncccn12 .
Ans: low

Q: Kindly identify the class of CC(C)(C)c1cnc(CSc2cnc(NC(=O)C3CCNCC3)s2)o1 .
Ans: low

Q: Kindly identify the class of CCOc1cc(N2CCC(O)CC2)ccc1Nc1ncc2c(n1)N(C1CCCC1)CCC(=O)N2C .
Ans: low

Q: Kindly identify the class of COc1ccc(NS(=O)(=O)c2sc3ccc(Cl)cc3c2C)cc1N1CCNCC1.Cl .
Ans: high

Q: Kindly identify the class of CNC(=O)c1cc(Oc2ccc(NC(=O)Nc3cc(C(C)(C)C)nn3-c3ccc4ncccc4c3)c(F)c2)ccn1 .
Ans: medium

Q: Kindly identify the class of Cl.Cl.Nc1ncnc2c1c(-c1cccc(OCc3ccccc3)c1)cn2[C@H]1C[C@@H](CN2CCC2)C1 .
Ans: high

Q: Kindly identify the class of CNc1oc(-c2cccc3ccccc23)nc1C#N .
Ans: low

Q: Kindly identify the class of COc1cc2c(NC3CCN(C(C)C)CC3)nc(N3CCC(F)(F)CC3)nc2cc1OCCCN1CCCC1 .
Ans: high

Q: Kindly identify the class of COc1cc2c(Nc3ccc(NC(=O)c4ccccc4)cc3)ncnc2cc1OCCCN1CCOCC1 .
Ans: low

Q: Kindly identify the class of CCc1cc2c(cc1CC)CC(NC[C@H](O)c1ccc(O)c3[nH]c(=O)ccc13)C2 .
Ans: high

====

Test system: Fibroblast
Assay: Multiplex assay against human fibroblast
Assay type: toxicity, cell-based
Settings: 12 h, 1 µM, compound concentration 1 uM, replicate 1
endpoint: Population Apoptotic (%)
Return type: number; implicit unit %.

Q: Look up Population Apoptotic (%): N#Cc1cnc(Nc2cc(NC[C@H]3CNCCO3)c(C(F)(F)F)cn2)cn1
Ans: 65

Q: Look up Population Apoptotic (%): Cc1cn(-c2cc(NC(=O)c3ccc4c(c3)CN(c3cncnc3)C[C@@H]4C)cc(C(F)(F)F)c2)cn1
Ans: 81

Q: Look up Population Apoptotic (%): CC(C)(C)c1cnc(CSc2cnc(NC(=O)C3CCNCC3)s2)o1
Ans: 75

Q: Look up Population Apoptotic (%): COc1cc2c(NC3CCN(C(C)C)CC3)nc(N3CCC(F)(F)CC3)nc2cc1OCCCN1CCCC1
Ans: 70

Q: Look up Population Apoptotic (%): Cc1nc(Cc2cccc(C(F)(F)F)c2)sc1-c1ccc(C(N)=O)nc1 [TP-024n]
Ans: 59

Q: Look up Population Apoptotic (%): CN(C)C/C=C/C(=O)Nc1cc2c(Nc3ccc(F)c(Cl)c3)ncnc2cc1O[C@H]1CCOC1.O=C(O)/C=C\C(=O)O.O=C(O)/C=C\C(=O)O [AFATINIB DIMALEATE]
Ans: 66

Q: Look up Population Apoptotic (%): CCc1cc2c(cc1CC)CC(NC[C@H](O)c1ccc(O)c3[nH]c(=O)ccc13)C2
Ans: 57

Q: Look up Population Apoptotic (%): CC(C)Oc1ccc(C(=O)N[C@H](CNC(=O)CN(C)C)Cc2ccc(-c3cn4cccc([C@H](C)O)c4n3)cc2)cc1Cl [GSK-923295A]
Ans: 71

Q: Look up Population Apoptotic (%): O=C(O)c1ccc2cc(-c3ccc(O)c(C45CC6CC(CC(C6)C4)C5)c3)ccc2c1
Ans: 57
